biological target: activated p38 (Homo sapiens, UniProt Q16539); test: Inhibition of phosphorylation of EGF receptor peptide ("kinase"); settings: inhibition of phosphorylation of EGF receptor peptide by activated p38
Sequence (Q16539 whole entry): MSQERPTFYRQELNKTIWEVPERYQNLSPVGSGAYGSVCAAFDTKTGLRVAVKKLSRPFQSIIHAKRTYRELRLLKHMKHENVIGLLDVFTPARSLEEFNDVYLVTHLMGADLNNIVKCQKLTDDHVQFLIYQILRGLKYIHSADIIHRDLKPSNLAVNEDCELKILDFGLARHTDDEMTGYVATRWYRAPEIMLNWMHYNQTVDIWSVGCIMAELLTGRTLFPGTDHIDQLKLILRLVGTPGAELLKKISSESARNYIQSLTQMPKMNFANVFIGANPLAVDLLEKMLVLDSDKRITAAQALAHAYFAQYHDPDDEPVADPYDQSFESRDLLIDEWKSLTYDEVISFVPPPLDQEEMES
ENDPOINT LABEL: IC50

Below are worked cases with known answers.
> print(dat)
                                   compound  value.reported
1  NC(=O)C(c1cccc(-c2cccc(Cl)c2)n1)c1c(Cl)cccc1Cl (centres unmarked)        ≤ 100 nM
2  Cc1ccc(Sc2ccc3c(-c4c(Cl)cccc4Cl)c(=O)ncn3n2)c(C)c1  100 to 1000 nM
3  Cc1cccc(Sc2ccc3c(-c4c(Cl)cccc4Cl)c(=O)ncn3n2)c1       ≥ 1000 nM
4  Cc1ccc(Sc2ccc3c(-c4ccc(Cl)cc4Cl)c(=O)ncn3n2)cc1       ≥ 1000 nM

// for each compound in input: emit IC50
1. Cc1ccc(-c2cccc(C(C(N)=O)c3c(Cl)cccc3Cl)n2)cc1 (centres unmarked)
2. NC(=O)C(c1cccc(-c2ccccc2)n1)c1c(F)cccc1Cl (centres unmarked)

["100 to 1000 nM", "100 to 1000 nM"]

// each compound listed below needs its IC50
1. O=C1NCN2N=C(Sc3ccccc3Br)C=CC2=C1c1c(Cl)cccc1Cl
2. NC(=O)C(c1cccc(-c2ccc(C(=O)O)cc2)n1)c1c(F)cccc1Cl (centres unmarked)
3. CC(=O)Nc1ccc(C2=C3C=CC(Sc4ccc(F)cc4)=NN3CNC2=O)c(Cl)c1
4. Cc1ccccc1SC1=NN2CNC(=O)C(c3c(Cl)cccc3Cl)=C2C=C1
5. Nc1ccc(F)cc1SC1=NN2CNC(=O)C(c3c(Cl)cccc3Cl)=C2C=C1
6. COc1ccc(-c2cccc(C(C(N)=O)c3c(Cl)cccc3Cl)n2)cc1 (centres unmarked)
7. O=c1ncn2nc(Sc3ccc(F)cc3)ccc2c1-c1c(Cl)cccc1Cl

≤ 100 nM
≥ 1000 nM
≤ 100 nM
≤ 100 nM
100 to 1000 nM
≥ 1000 nM
100 to 1000 nM

Return reported IC50 values for all items listed beneath this line.
1. NC(=O)C(c1cccc(-c2ccc(F)cc2CO)n1)c1c(Cl)cccc1Cl (centres unmarked)
2. O=C(O)c1ccccc1Sc1ccc2c(-c3c(Cl)cccc3Cl)c(=O)ncn2n1
3. Cc1cc(SC2=NN3CNC(=O)C(c4c(Cl)cccc4Cl)=C3C=C2)c(Cl)cc1F
4. O=c1ncn2nc(Sc3ccccc3)ccc2c1-c1c(F)cccc1C(F)(F)F
5. Cc1ccc(-c2cccc(N(C(N)=O)c3c(Cl)cccc3Cl)n2)cc1
6. O=C1C(c2c(Cl)cccc2Cl)=C2C=CC(Sc3ccc(F)cc3)=NN2CN1CO

["≤ 100 nM", "100 to 1000 nM", "≤ 100 nM", "≥ 1000 nM", "100 to 1000 nM", "100 to 1000 nM"]

----------
molecular target: activated p38 (Homo sapiens); test: Inhibition of phosphorylation of EGF receptor peptide ("kinase"); details: inhibition of phosphorylation of EGF receptor peptide by activated p38
For each record, write down the corresponding IC50.

Below, each entry is followed by its recorded IC50 result.
> print(dat)
                                   compound  value.reported
1  NC(=O)C(c1cccc(-c2cccc(Cl)c2Cl)n1)c1c(Cl)cccc1Cl (stereo not drawn) [Compound 382]        ≤ 0.1 µM
2  NC(=O)C(c1cccc(-c2cccc(F)c2)n1)c1c(F)cccc1Cl (stereo not drawn) [Compound 344]          ≥ 1 µM

Provide IC50 values for the following items, in order.
1. O=c1ncn2nc(Sc3ccccc3O)ccc2c1-c1c(Cl)cccc1Cl [Compound 33]
2. NC(=O)C(c1ccc(Sc2ccc(F)cc2Cl)nn1)c1ccc(N)cc1Cl (stereo not drawn) [Compound 207]
3. NC(=O)C(c1cccc(-c2ccccc2O)n1)c1c(Cl)cccc1Cl (stereo not drawn) [Compound 386]

["0.1 to 1 µM", "≥ 1 µM", "≥ 1 µM"]

Record IC50 for all entries; do not skip any.
1. O=C1NCN2N=C(Sc3ccc(F)cc3)C=CC2=C1c1cc2c(cc1Cl)OCO2 [Compound 129]
2. O=C1NCN2C=C(Sc3ccc(F)cc3)C=CC2=C1c1c(Cl)cccc1Cl [Compound 111]
3. NC(=O)C(c1cccc(-c2occc2C=O)n1)c1c(F)cccc1Cl (stereo not drawn) [Compound 357]
4. NC(=O)C(c1cccc(-c2ccccc2F)n1)c1c(Cl)cccc1Cl (stereo not drawn) [Compound 383]
5. NC(=O)C(c1ccc(F)cc1)c1ccc(Sc2ccccc2)nn1 (stereo not drawn) [Compound 204]
6. O=c1ncn2nc(Sc3ccccn3)ccc2c1-c1c(Cl)cccc1Cl [Compound 30]

≤ 0.1 µM
0.1 to 1 µM
≥ 1 µM
≤ 0.1 µM
≥ 1 µM
≥ 1 µM

Respectfully, I request IC50 for each entry included below.
1. O=C1NCN2N=C(Sc3ccccc3)C=CC2=C1c1c(F)cccc1F [Compound 130]
2. NC(=O)C(c1cccc(-c2ccsc2)n1)c1c(F)cccc1Cl (stereo not drawn) [Compound 339]

1: ≤ 0.1 µM; 2: ≥ 1 µM

----------
test system: IL-1 production in LPS-stimulated PBMCs; test: Inhibition of IL-1 production in LPS-stimulated PBMCs ("cell"); format: cell-based, human; conditions: Homo sapiens, PBMC
ENDPOINT LABEL: IC50

Below, 5 compounds whose answers are already recorded.
> print(dat)
                                   compound  value.reported
1  NC(=O)C(c1cccc(-c2ccc(Cl)cc2Cl)n1)c1c(F)cccc1Cl (centres unmarked)        ≥ 500 nM
2  Nc1ccc(F)c(C2=C3C=CC(Sc4ccc(F)cc4)=NN3CNC2=O)c1Cl        ≤ 100 nM
3  Nc1ccc(C2=C3C=CC(Sc4ccc(F)cc4)=NN3CNC2=O)c(Cl)c1        ≤ 100 nM
4  NC(=O)c1ccccc1SC1=NN2CNC(=O)C(c3c(Cl)cccc3Cl)=C2C=C1        ≥ 500 nM
5  Cc1ccccc1-c1cccc(N(C(N)=O)c2c(C)cccc2C)n1        ≤ 100 nM

State recorded IC50 for all listed compounds.
1. NC(=O)C(c1cccc(-c2ccc(F)cc2)n1)c1c(Cl)cccc1Cl (centres unmarked)
2. O=c1ncn2nc(Sc3ccccc3Br)ccc2c1-c1c(Cl)cccc1Cl
3. COc1ccc(-c2cccc(C(C(N)=O)c3c(Cl)cccc3Cl)n2)cc1 (centres unmarked)
4. Cc1ccccc1Sc1ccc2c(-c3c(Cl)cccc3Cl)c(=O)ncn2n1
5. Cc1cc(F)ccc1-c1cccc(N(C(N)=O)c2cc3c(cc2Cl)OCO3)n1

1. 100 to 500 nM
2. 100 to 500 nM
3. ≥ 500 nM
4. 100 to 500 nM
5. ≤ 100 nM

----------
So I've got a bunch of molecules here, and I need their pIC50 values.
system: IL-1 production in LPS-stimulated PBMCs; assay: Inhibition of IL-1 production in LPS-stimulated PBMCs ("cell"); assay type: cell-based, human; settings: Homo sapiens, PBMC
pIC50: −log10 of the molar value.

Some solved cases for reference:
> print(dat)
                                   molecule  endpoint.label  value.reported
1  N#Cc1ccccc1SC1=NN2CNC(=O)C(c3c(Cl)cccc3Cl)=C2C=C1 [Compound 116]           pIC50          ≥ 7.00
2  COc1ccc(C2=C3C=CC(Sc4ccc(F)cc4)=NN3CNC2=O)c(Cl)c1 [Compound 139]           pIC50          ≥ 7.00

Could you report pIC50 for every entry in the following list?
1. NC(=O)C(c1cccc(-c2ccccc2)n1)c1cc(Cl)ccc1Cl (centres unmarked) [Compound 349]
2. O=c1ncn2nc(Sc3ccc(Cl)c(Cl)c3)ccc2c1-c1c(Cl)cccc1Cl [Compound 16]

6.30 to 7.00
≤ 6.30

Give the reported value of pIC50 for this record: NC(=O)C(c1ccc(C(=O)c2ccccc2)cn1)c1c(Cl)cccc1Cl (centres unmarked) [Compound 209]
≤ 6.30

----------
Tested on: IL-1 production in whole blood
Test: Inhibition of IL-1 production in LPS-stimulated whole blood ("WB")
Format: cell-based, human
Conditions: Homo sapiens
Method: Inhibitors were serially diluted in DMSO from a 20 mM stock. At least 6 serial dilutions were prepared. Then 4× inhibitor stocks were prepared by adding 4 μl of an inhibitor dilution to 1 ml of RPMI1640 medium/10% fetal bovine serum. The 4× inhibitor stocks contained inhibitor at concentrations of 80 μM, 32 μM, 12.8 μM, 5.12 μM, 2.048 μM, 0.819 μM, 0.328 μM, 0.131 μM, 0.052 μM, 0.021 μM etc. The 4× inhibitor stocks were pre-warmed at 37° C. until use. […]
pIC50: −log10 of the molar value.
ENDPOINT LABEL: pIC50

Below, each entry is followed by its recorded pIC50 result.
> print(dat)
                                   molecule  value.reported
1  NC(=O)N(c1cccc(-c2ccccc2)n1)c1c(Cl)cccc1Cl          ≤ 6.30
2  Cc1cc(F)ccc1-c1cccc(N(C(N)=O)c2c(F)cccc2F)n1    6.30 to 6.60

Hi there! I need pIC50 for each item below, if you can.
1. O=c1ncn2nc(Sc3ccc(F)cc3)ccc2c1-c1c(Cl)cccc1Cl
2. O=c1ncn2nc(Sc3ccccn3)ccc2c1-c1c(Cl)cccc1Cl
3. COc1ccc(-c2c(=O)ncn3nc(Sc4ccc(F)cc4)ccc23)c(Cl)c1OC
4. Cc1ccc(Sc2ccc3c(-c4c(Cl)cccc4Cl)c(=O)ncn3n2)c(C)c1
5. NC(=O)N(c1cccc(-c2ccc(F)cc2)n1)c1c(F)cccc1F

1: ≤ 6.30; 2: ≤ 6.30; 3: ≤ 6.30; 4: ≤ 6.30; 5: ≤ 6.30

Respectfully, I request pIC50 for each entry included below.
1. Nc1ccc(Cl)c(C2=C3C=CC(Sc4ccc(F)cc4)=NN3CNC2=O)c1Cl
2. COC(=O)c1ccccc1Sc1ccc2c(-c3c(Cl)cccc3Cl)c(=O)ncn2n1

≤ 6.30
≤ 6.30

Would you mind listing pIC50 for each of the following compounds?
1. O=C1NCN2N=C(Sc3ccc(F)cc3)C=CC2=C1c1cc2c(cc1Cl)OCO2
2. Cc1cc(F)ccc1-c1cccc(N(C(N)=O)c2c(Cl)cccc2Cl)n1

6.30 to 6.60
≤ 6.30
